molecular target: T1, Pig serum albumin (pig, UniProt P08835 25-607); experiment: SPR, SA on chip, VHH 300 nM, 25 C
T1 construct: bought; immobilised on a CM5 chip by amine coupling; also called Pig SA
This listing pairs binders with measured koff.

binder: VHH moiety 9 (MC6.1C22-R27A) (VHH) VHH: EVQLLESGGGLVQPGGSLRLSCAASGAYIDETAVAWFRQAPGKEREFVAGIGGGVDITYYADSVKGRFTISRDNSKNTLYLQMNSLRPEDTAVYYCAARPGRPLITSKVADLYPYWGQGTLVTVSS
unit: s⁻¹
koff: 0.012

binder: VHH moiety 21 (MC6.1C22-P103Q) (VHH) VHH: EVQLLESGGGLVQPGGSLRLSCAASGRYIDETAVAWFRQAPGKEREFVAGIGGGVDITYYADSVKGRFTISRDNSKNTLYLQMNSLRPEDTAVYYCAARPGRQLITSKVADLYPYWGQGTLVTVSS
unit: s⁻¹
koff: 0.01

binder: VHH moiety 4 (MC6.1C80.43) (VHH) VHH: EVQLLESGGGLVQPGGSLRLSCAASGRYIDETAVAWFRQAPGKGREFVAGIGGGVDITYYADSVKGRFTISRDNSKNTLYLQMNSLRPEDTAVYYCAARPGRPLITSKVADLYPYWGQGTLVTVSS
unit: s⁻¹
koff: 0.0057

binder: VHH moiety 8 (MC6.1C22-G26Y) (VHH) VHH: EVQLLESGGGLVQPGGSLRLSCAASYRYIDETAVAWFRQAPGKEREFVAGIGGGVDITYYADSVKGRFTISRDNSKNTLYLQMNSLRPEDTAVYYCAARPGRPLITSKVADLYPYWGQGTLVTVSS
unit: s⁻¹
koff: 0.0092
